target or test system: T1, integrin αvβ3, purified from human placenta (human, UniProt P06756 31-1048; P05106 27-788)
T1 construct: mature; Native heterodimer, immobilized on ELISA plates or on the BIAcore chip; biotinylated in capture lift and capture ELISA screens; also called αvβ3 receptor; vitronectin receptor
T1 sequence (P06756 31-1048, form in doubt, chain 1 of 2): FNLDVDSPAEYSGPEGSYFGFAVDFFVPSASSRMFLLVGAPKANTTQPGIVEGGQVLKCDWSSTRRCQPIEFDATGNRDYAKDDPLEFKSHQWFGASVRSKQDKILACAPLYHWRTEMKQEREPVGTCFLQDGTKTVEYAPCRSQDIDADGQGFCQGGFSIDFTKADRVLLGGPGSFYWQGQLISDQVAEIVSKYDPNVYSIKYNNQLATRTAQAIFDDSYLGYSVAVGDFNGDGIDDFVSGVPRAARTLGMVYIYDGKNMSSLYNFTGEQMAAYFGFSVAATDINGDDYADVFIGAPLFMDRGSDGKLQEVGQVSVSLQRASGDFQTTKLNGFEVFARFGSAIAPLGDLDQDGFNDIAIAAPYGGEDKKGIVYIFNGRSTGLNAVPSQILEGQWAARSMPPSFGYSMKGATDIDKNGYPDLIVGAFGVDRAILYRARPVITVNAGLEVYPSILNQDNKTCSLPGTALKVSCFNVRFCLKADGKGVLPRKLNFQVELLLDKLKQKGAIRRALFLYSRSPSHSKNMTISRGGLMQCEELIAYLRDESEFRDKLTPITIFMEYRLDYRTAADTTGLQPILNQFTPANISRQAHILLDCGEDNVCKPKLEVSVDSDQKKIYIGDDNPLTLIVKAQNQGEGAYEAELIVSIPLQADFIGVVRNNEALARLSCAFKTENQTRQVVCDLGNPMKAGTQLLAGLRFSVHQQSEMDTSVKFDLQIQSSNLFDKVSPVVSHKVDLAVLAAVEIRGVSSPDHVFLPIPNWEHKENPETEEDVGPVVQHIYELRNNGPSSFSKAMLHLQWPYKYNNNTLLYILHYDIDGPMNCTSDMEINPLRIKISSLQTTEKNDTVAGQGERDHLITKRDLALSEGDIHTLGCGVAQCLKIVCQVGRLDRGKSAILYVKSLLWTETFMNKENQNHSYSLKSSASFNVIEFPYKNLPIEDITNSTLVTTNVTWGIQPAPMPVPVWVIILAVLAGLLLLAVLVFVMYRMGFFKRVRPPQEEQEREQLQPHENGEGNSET
T1 sequence (P05106 27-788, form in doubt, chain 2 of 2): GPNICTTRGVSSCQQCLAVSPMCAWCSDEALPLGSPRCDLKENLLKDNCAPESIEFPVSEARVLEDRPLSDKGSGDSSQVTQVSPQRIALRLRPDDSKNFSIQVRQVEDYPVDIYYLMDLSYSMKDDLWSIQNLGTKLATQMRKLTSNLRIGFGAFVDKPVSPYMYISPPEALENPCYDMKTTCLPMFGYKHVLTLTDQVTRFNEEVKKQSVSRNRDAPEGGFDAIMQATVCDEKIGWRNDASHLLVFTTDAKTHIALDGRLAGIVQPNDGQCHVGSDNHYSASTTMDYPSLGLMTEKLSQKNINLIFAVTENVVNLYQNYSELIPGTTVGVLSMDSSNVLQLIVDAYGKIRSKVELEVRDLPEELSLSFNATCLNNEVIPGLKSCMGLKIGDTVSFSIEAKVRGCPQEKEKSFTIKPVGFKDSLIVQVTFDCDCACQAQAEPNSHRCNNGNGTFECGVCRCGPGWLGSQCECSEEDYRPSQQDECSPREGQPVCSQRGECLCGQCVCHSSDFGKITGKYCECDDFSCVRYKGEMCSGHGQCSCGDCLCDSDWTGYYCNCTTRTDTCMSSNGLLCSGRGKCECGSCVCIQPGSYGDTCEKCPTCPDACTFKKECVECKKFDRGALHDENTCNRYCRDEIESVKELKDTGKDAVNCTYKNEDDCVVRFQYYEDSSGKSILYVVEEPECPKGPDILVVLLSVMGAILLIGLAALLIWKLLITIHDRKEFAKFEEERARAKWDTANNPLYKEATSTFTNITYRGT
procedure summary: SPR (BIAcore), purified Fab over immobilized αvβ3
Tick TRUE if koff is 0.001 s⁻¹ or greater. Tick FALSE if koff is less than 0.001 s⁻¹.

The following binders have reported results that may help.
LM609 grafted antibody variant A102 (Fab, V domains shown, Fab) VH: QVQLVESGGGVVQPGRSLRLSCAASGFTFSSYDMSWVRQAPGKGLEWVAKVSSGGGSTYYLDTVQGRFTISRDNSKNTLYLQMNSLRAEDTAVYYCARHNYGSFAAWGQGTTVTVSS VL: EIVLTQSPATLSLSPGERATLSCQASQSISNHLHWYQQRPGQAPRLLIRYRSQSISGIPARFSGSGSGTDFTLTISSLEPEDFAVYYCQQSGSWPHTFGGGTKVEIK: TRUE
LM609 grafted antibody variant G102 (Fab, V domains shown, Fab; also called clone G102) VH: QVQLVESGGGVVQPGRSLRLSCAASGFTFSSYDMSWVRQAPGKGLEWVAKVSSGGGSTYYLDTVQGRFTISRDNSKNTLYLQMNSLRAEDTAVYYCARHNYGSFAGWGQGTTVTVSS VL: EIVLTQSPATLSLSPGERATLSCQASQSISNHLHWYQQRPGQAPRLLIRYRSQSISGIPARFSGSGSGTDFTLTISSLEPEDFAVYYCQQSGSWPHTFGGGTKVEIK: TRUE
LM609 grafted antibody variant F32 (Fab, V domains shown, Fab) VH: QVQLVESGGGVVQPGRSLRLSCAASGFTFSSYDMSWVRQAPGKGLEWVAKVSSGGGSTYYLDTVQGRFTISRDNSKNTLYLQMNSLRAEDTAVYYCARHNYGSFAYWGQGTTVTVSS VL: EIVLTQSPATLSLSPGERATLSCQASQSISNFLHWYQQRPGQAPRLLIRYRSQSISGIPARFSGSGSGTDFTLTISSLEPEDFAVYYCQQSGSWPHTFGGGTKVEIK: FALSE
LM609 grafted antibody variant N92 (Fab, V domains shown, Fab; also called LM609 grafted antibody having Asn at position 92 of light chain CDR3) VH: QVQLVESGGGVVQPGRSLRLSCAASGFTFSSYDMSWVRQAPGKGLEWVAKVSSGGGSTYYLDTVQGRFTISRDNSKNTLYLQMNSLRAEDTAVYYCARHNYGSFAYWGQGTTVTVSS VL: EIVLTQSPATLSLSPGERATLSCQASQSISNHLHWYQQRPGQAPRLLIRYRSQSISGIPARFSGSGSGTDFTLTISSLEPEDFAVYYCQQSNSWPHTFGGGTKVEIK: TRUE

Asked: Could you tell me if the measured koff of LM609 grafted antibody variant T102 (Fab, V domains shown, Fab) VH: QVQLVESGGGVVQPGRSLRLSCAASGFTFSSYDMSWVRQAPGKGLEWVAKVSSGGGSTYYLDTVQGRFTISRDNSKNTLYLQMNSLRAEDTAVYYCARHNYGSFATWGQGTTVTVSS VL: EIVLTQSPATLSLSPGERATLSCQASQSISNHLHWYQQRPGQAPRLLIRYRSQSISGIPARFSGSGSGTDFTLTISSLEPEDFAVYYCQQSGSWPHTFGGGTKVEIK reaches 0.001 s⁻¹ or more?
Given back: TRUE
